Assay: Solubility in organic solvents
Assay type: physicochemical
Conditions: organic solvent or mixture; in methanol
Property Measured: solubility

Entry under review: "c1cc(-c2cccc3nc(-c4nc5cccc(-c6cccc7ncoc67)c5o4)oc23)c2ocnc2c1" . Reported solubility?
< 1 µM
